Observed IC50 for UniProt:P10721, reported per entry below.
Sequence (P10721 26-976): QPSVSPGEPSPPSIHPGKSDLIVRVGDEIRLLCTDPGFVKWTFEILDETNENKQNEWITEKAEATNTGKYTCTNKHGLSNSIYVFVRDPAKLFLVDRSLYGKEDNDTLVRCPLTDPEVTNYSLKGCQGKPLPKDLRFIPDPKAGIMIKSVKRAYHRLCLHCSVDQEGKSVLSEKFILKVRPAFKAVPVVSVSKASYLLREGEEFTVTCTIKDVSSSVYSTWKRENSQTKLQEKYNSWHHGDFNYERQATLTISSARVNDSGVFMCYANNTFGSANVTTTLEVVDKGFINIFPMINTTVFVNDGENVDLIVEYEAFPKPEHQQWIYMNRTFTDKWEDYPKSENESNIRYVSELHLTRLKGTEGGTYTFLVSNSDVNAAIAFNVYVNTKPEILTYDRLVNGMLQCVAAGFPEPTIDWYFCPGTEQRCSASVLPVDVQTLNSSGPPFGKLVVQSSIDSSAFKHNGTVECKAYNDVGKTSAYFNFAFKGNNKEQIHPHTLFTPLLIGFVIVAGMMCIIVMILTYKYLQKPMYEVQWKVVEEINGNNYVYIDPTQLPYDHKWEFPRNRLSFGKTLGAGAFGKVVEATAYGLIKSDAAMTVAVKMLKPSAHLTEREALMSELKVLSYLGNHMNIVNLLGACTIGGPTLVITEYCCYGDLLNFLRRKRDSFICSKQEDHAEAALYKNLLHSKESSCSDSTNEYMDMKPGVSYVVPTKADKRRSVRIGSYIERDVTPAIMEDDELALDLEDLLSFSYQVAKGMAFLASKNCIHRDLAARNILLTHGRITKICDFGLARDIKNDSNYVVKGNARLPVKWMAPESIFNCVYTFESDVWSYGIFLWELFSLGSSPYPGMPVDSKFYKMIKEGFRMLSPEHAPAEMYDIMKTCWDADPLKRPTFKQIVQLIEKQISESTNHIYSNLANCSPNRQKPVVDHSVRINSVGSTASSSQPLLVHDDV

compound=O=C(NCc1cccc(-c2ccc3nccnc3c2)c1)Nc1ccc(Cl)c(C(F)(F)F)c1 measure_name=IC50 measurement="50 to 500 nM"

Consider the compound Cc1ccc(-n2cnnn2)cc1OCC(=O)Nc1ccc(Cl)c(C(F)(F)F)c1 and give its measured IC50.
> 5000 nM

Consider the compound O=C(COc1ccc(-c2cncnc2)cc1)Nc1ccc(Cl)c(C(F)(F)F)c1 and give its measured IC50.
50 to 500 nM

Consider the compound Cc1ccc(NC(=O)OCc2ccc(-c3cncnc3)cc2)cc1C and give its measured IC50.
500 to 5000 nM

Consider the compound O=C(Nc1ccc(Cl)c(C(F)(F)F)c1)OCc1ccc(-n2cnnn2)cc1 and give its measured IC50.
500 to 5000 nM

Consider the compound O=C(NCc1ccc(-c2cncc3ccccc23)cc1)Nc1ccc(Cl)c(C(F)(F)F)c1 and give its measured IC50.
500 to 5000 nM

Consider the compound COC(=O)c1cn(-c2cccc(OCC(=O)Nc3ccc(Cl)c(C(F)(F)F)c3)c2)nn1 and give its measured IC50.
500 to 5000 nM

Consider the compound CC(C)(C)OC(=O)N1CCCC(NC(=O)c2nc(-c3cccc(CNC(=O)Nc4ccc(Cl)c(C(F)(F)F)c4)c3)cnc2N)C1 (stereo not drawn) and give its measured IC50.
500 to 5000 nM

Consider the compound O=C(Nc1ccc(Cl)c(C(F)(F)F)c1)OCc1cccc(-c2cccnc2)n1 and give its measured IC50.
500 to 5000 nM
